Recorded values, source patent US11180499B2.

# Target under test: PDE4B (Homo sapiens, UniProt Q07343)
# Sequence (Q07343 whole entry): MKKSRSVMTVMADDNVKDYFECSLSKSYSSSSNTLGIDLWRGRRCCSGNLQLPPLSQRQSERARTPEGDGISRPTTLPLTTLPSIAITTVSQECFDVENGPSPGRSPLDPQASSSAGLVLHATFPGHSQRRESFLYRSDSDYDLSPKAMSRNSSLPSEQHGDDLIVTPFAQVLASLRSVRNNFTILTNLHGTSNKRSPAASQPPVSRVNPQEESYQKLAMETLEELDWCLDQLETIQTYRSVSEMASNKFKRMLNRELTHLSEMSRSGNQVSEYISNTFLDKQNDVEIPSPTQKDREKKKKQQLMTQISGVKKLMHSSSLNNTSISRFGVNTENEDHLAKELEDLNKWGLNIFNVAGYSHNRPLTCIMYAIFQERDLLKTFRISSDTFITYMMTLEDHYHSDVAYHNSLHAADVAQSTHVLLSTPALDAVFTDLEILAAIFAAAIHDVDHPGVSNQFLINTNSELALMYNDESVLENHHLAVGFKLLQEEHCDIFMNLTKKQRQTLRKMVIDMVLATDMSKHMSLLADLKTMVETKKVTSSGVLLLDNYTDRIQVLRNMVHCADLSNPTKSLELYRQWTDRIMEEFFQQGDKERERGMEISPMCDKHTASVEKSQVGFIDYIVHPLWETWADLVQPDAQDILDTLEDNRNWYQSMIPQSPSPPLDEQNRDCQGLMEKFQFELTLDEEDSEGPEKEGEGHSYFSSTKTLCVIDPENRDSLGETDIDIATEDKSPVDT
pIC50: −log10 of the molar value.
Binary call on pIC50: rule met from 6 upward, rule not met beneath that.

Kindly determine if pIC50 recorded for O=C(NC1CCC1)c1cc2cccnc2n1-c1ccc(Cl)cc1 is above or exactly 6.
rule not met

Kindly determine if pIC50 recorded for O=C(NC1CC1)c1cc2cccnc2n1-c1ccc(Cl)cc1 is above or exactly 6.
rule not met

Kindly determine if pIC50 recorded for O=C(c1cc2cccnc2n1-c1ccc(Cl)c(Cl)c1)N1CCC1 is above or exactly 6.
rule met

====

# Target under test: PDE4D (Homo sapiens, UniProt Q08499)
# Construct: purchased BPS Bioscience, San Diego
# Sequence (Q08499 whole entry): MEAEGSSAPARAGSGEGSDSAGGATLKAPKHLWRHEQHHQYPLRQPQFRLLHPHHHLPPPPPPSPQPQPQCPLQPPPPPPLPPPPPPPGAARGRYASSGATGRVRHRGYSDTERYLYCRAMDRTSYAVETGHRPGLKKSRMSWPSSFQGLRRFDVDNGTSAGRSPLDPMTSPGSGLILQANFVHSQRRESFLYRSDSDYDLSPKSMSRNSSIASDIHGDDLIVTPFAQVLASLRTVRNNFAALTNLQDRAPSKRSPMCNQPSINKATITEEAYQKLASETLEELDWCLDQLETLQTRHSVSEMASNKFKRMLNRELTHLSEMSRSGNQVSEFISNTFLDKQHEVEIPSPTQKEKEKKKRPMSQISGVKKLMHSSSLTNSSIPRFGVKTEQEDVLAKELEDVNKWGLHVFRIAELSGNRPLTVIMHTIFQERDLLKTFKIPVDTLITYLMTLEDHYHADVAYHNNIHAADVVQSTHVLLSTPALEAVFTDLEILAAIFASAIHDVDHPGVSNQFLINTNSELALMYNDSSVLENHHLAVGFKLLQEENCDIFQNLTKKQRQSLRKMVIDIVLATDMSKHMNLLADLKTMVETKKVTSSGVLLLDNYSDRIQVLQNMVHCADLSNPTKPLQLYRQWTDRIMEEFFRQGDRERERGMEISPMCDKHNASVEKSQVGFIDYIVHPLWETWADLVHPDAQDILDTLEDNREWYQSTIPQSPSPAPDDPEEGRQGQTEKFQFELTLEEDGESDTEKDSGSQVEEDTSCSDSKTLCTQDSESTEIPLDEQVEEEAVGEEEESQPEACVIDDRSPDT
# Procedure text: In vitro PDE4 inhibition study, PDE4D (BPS Bioscience)
# Type: binding
# Experimental context: values in parentheses
Property measured: inhibition at 10 µM (%)
Give the number; % is assumed, so skip it.

> print(dat)
                                   molecule                     target.under.test  experimental.value
1  O=C(NC1CC(F)(F)C1)c1cc2cccnc2n1-c1ccc(Cl)c(Cl)c1  PDE4D (Homo sapiens, UniProt Q08499)                11.6
2  O=C(NC1CC1)c1cc2cccnc2n1-c1cc(F)c(Cl)c(F)c1  PDE4D (Homo sapiens, UniProt Q08499)                  53
3  N#Cc1c(F)cc(-n2c(C(=O)NC3CC3)cc3cccnc32)cc1F  PDE4D (Homo sapiens, UniProt Q08499)                18.5
4  Cc1ccc(-n2c(C(=O)NC3CCC3)cc3cccnc32)cc1Cl  PDE4D (Homo sapiens, UniProt Q08499)                  43
5  N#Cc1c(F)cc(-n2c(C(=O)NC3CCC3)cc3cccnc32)cc1F  PDE4D (Homo sapiens, UniProt Q08499)                16.6
6  O=C(c1cc2cccnc2n1Cc1ccc(Cl)c(Cl)c1)N1CC(F)C1  PDE4D (Homo sapiens, UniProt Q08499)                  58
7  O=C(NC1CC(F)C1)c1cc2cccnc2n1-c1ccc(Cl)c(Cl)c1 (stereo not shown)  PDE4D (Homo sapiens, UniProt Q08499)                  36
8  N#Cc1c(F)cc(-n2c(C(=O)N3CC(F)C3)cc3cccnc32)cc1F  PDE4D (Homo sapiens, UniProt Q08499)                  66

Fill in the blank: the reported inhibition at 10 µM of O=C(NC1CCC1)c1cc2cccnc2n1-c1ccc(Cl)c(F)c1 is ____.
39

Fill in the blank: the reported inhibition at 10 µM of O=C(c1cc2cccnc2n1-c1ccc(Cl)c(Cl)c1)N1CC2(CCNCC2)C1 is ____.
13
